# Read-out: Human Leukocyte Antigen - DR isotype (HLADR), HLA-DRA (gene 3122)
# test.summary: BSK_3C_HLADR: BioMAP Diversity Plus: 3C Assay for Human Leukocyte Antigen - DR isotype (HLADR) Biomarker Activity (AID 2283019)
# condition.summary: primary human endothelial cells (HUVEC); actives raise or lower the signal
Calls of active or inactive are those of the source. Rule for the calls: active = hit-call score of the fitted dose curve at least 0.9, where 1 is the maximum; inactive = score below 0.9.
Possible outcomes: 1 = active, 0 = inactive

{"columns": ["compound", "discrete.label"],
 "data": [
  ["CCCCCCCCCCCCN1CCCC1=O", 1],
  ["O=C(O)Cc1cc(I)c(Oc2cc(I)c(O)c(I)c2)c(I)c1", 1],
  ["CC#C[C@]1(O)CC[C@H]2[C@@H]3CCC4=CC(=O)CCC4=C3[C@@H](c3ccc(N(C)C)cc3)C[C@@]21C", 1],
  ["COCC(C)O (stereo not drawn)", 0],
  ["C=C(C)C(=O)OCCC(F)(F)C(F)(F)C(F)(F)C(F)(F)C(F)(F)C(F)(F)F", 0],
  ["CCCCCCCCCCCCc1ccccc1S(=O)(=O)O", 0],
  ["CC(C)(C)CC(C)(C)c1ccc(O)c(-n2nc3ccccc3n2)c1", 0],
  ["C[C@@H]1C[C@H]2[C@@H]3CCC4=CC(=O)C=C[C@]4(C)[C@@]3(F)[C@@H](O)C[C@]2(C)[C@@]1(O)C(=O)COP(=O)(O)O", 0],
  ["NC(=O)N(O)[C@@H]1C=C[C@H](Oc2cccc(Oc3ccc(F)cc3)c2)C1", 0],
  ["OC1CCC(C2CCCCC2)CC1 (stereo not drawn)", 0],
  ["NCC(F)(F)C(F)(F)C(F)(F)C(F)(F)C(F)(F)C(F)(F)C(F)(F)F", 0],
  ["CCN(CC)CCNc1ccc(CNC=O)c2sc3ccc(OC)cc3c(=O)c12", 1],
  ["CC(C)(C)c1cccc(C(C)(C)C)c1O", 0]
]}

###

# Read-out: Insulin-like growth factor-binding protein 1 (IGFBP1), IGFBP1 (gene 3484)
# test.summary: LTEA_HepaRG_IGFBP1: Life Technologies and Expression Analysis (LTEA) Assay for Insulin-like growth factor-binding protein 1 (IGFBP1) using HepaRG (AID 2283508)
# condition.summary: mRNA level, 48 h; actives raise or lower the signal
# Protocol: LTEA_HepaRG is a cell based, multiplexed-readout assay that uses HepaRG, a human liver cell line, with measurements taken at 48 hours after chemical dosing on a 96-well plate.LTEA_HepaRG_IGFBP1 is one of 102 assay component(s) measured in the LTEA HepaRG cell culture assay. It is a marker of Cell proliferation, survival, death.Data from the assay component LTEA_HepaRG_IGFBP1 was analyzed into 1 endpoint. […]
Activity calls are given as the source filed them. How the source made its calls: active means hit-call score of the fitted dose curve at least 0.9, where 1 is the maximum; inactive means score below 0.9.
Possible outcomes: active, inactive

{"columns": ["molecule", "discrete.label"],
 "data": [
  ["c1ccc2cc3c(ccc4ccccc43)cc2c1", "active"],
  ["CC[C@H](c1ccc(O)cc1)[C@@H](CC)c1ccc(O)cc1", "active"],
  ["CCOC(=O)CC(O)(CC(=O)OCC)C(=O)OCC", "inactive"],
  ["Cc1cc(CCN2CCN(c3nsc4ccccc34)CC2)cc2c1NC(=O)CC2(C)C", "active"],
  ["Cc1oc(-c2ccccc2)nc1CCOc1ccc(C[C@H](Nc2ccccc2C(=O)c2ccccc2)C(=O)O)cc1", "active"],
  ["O=C(O)Cc1cc(I)c(Oc2cc(I)c(O)c(I)c2)c(I)c1", "active"],
  ["COc1ccc([N+](=O)[O-])cc1N", "inactive"],
  ["CC(O)CO (centres undefined)", "inactive"],
  ["CC(C)(C)CC(C)(C)c1ccc(O)c(-n2nc3ccccc3n2)c1", "inactive"],
  ["COC(=O)CCCCC(=O)OC", "inactive"],
  ["CCCCC(CC)COC(=O)CCCCC(=O)OCc1ccccc1 (centres undefined)", "inactive"],
  ["Nc1cccc2c(N)cccc12", "inactive"],
  ["CC[C@H](C)[C@@H](C(=O)O)n1sc2ccccc2c1=O", "inactive"],
  ["c1ccc2c(c1)ccc1ccccc12", "inactive"]
]}
